Record: compiled IC50 on Protease (Human immunodeficiency virus 1, UniProt Q9YQ12) from multiple reports.
Assay readout: IC50 (µM)

compound=COC(=O)N[C@H](C(=O)N[C@@H](Cc1ccccc1)[C@@H](O)CN(Cc1ccc(-c2ccccn2)cc1)NC(=O)[C@@H](NC(=O)OC)C(C)(C)C)C(C)(C)C assay_readout=IC50 recorded_number=0.004
compound="Cc1ccccc1SC1=C(O)CC(COc2cccc3ccccc23)(c2ccccc2)OC1=O (racemic)" assay_readout=IC50 recorded_number=0.064
compound=COc1ccc(S(=O)(=O)N(CC(C)C)C[C@@H](O)[C@H](Cc2ccccc2)NC(=O)CN(CC(=O)N(C)C)[C@H]2CCOC2)cc1 assay_readout=IC50 recorded_number=0.0286
compound=COc1ccc(N(CC(=O)N[C@@H](Cc2ccccc2)[C@H](O)CN(CC(C)C)S(=O)(=O)c2ccc(CO)cc2)CC(=O)N(C)C)cc1 assay_readout=IC50 recorded_number=0.37
compound=COC(=O)[C@H](NC(=O)[C@]12CCC(C)(C)C[C@@H]1C1=CC[C@@H]3[C@@]4(C)CCC(=O)C(C)(C)[C@@H]4CC[C@@]3(C)[C@]1(C)CC2)C(C)C assay_readout=IC50 recorded_number=41.4

P = CC(C)CN(C[C@@H](O)[C@H](Cc1ccccc1)NC(=O)Cn1cnc2cnc(N)nc21)S(=O)(=O)c1ccc(N)cc1
Q = CCCC(=O)N[C@@H](CSCCOCCOCCSC[C@H](NC(=O)CCC)C(=O)N[C@@H](CC(C)C)C(=O)N[C@@H](Cc1ccccc1)C(N)=O)C(=O)N[C@@H](Cc1ccccc1)C(=O)O
Incoming: Would you mind telling me which has the lower recorded IC50 between P and Q ? State the label of the item chosen.
Outgoing: P

I = C[C@H](c1ccccc1)n1cc([C@H](Cc2ccccc2)n2cc([C@H](Cc3ccccc3)n3cc([C@@H](N)Cc4ccccc4)nn3)nn2)nn1
II = CC(C)[C@H](NC(=O)[C@]12CCC(C)(C)C[C@@H]1[C@H]1CC[C@@H]3[C@@]4(C)C=C(O)C(=O)C(C)(C)[C@@H]4CC[C@@]3(C)[C@]1(C)CC2)C(=O)O
Incoming: Of I versus II , which is the one with smaller reported IC50? Returns: label corresponding to the selected item.
Outgoing: II
(II: 40.5 µM, I: 78 µM)
